# Tested on: strains TA98
# Assay type: cell-based
# assay_conditions: TA98, S-9 (+), 20 μg/plate
yes (1) if Ames test: ratio of the number of colonies to control is below 1. no (0) if not; exact matches included in no (0).

compound: Cc1cc(-c2ccc(N=Nc3c(S(=O)(=O)[O-])cc4cc(S(=O)(=O)[O-])c(N=Nc5ccccc5)c(O)c4c3N)c(C)c2)ccc1N=Nc1ccc(N)cc1N.[Na+].[Na+] [compound 3, C.I. Direct Black 154, reference compound]
answer_label: no (0)
--
compound: Cc1ccc(N(c2ccc(N=Nc3ccc(O)cc3O)cc2)c2ccc(N=Nc3c(S(=O)(=O)O)cc4cc(S(=O)(=O)O)c(N=Nc5ccccc5)c(O)c4c3N)cc2)cc1
answer_label: no (0)
--
compound: Nc1ccc(N=Nc2ccc(N(c3ccccc3)c3ccc(N=Nc4c(S(=O)(=O)O)cc5cc(S(=O)(=O)O)c(N=Nc6ccccc6)c(O)c5c4N)cc3)cc2)c(O)c1
answer_label: no (0)
--
compound: CCCCCCCCN(c1ccc(N=Nc2ccc(N)cc2O)cc1)c1ccc(N=Nc2c(S(=O)(=O)O)cc3cc(S(=O)(=O)O)c(N=Nc4ccc(S(=O)(=O)O)cc4)c(O)c3c2N)cc1
answer_label: no (0)
--
compound: Nc1ccc(N=Nc2ccc(Nc3ccc(N=Nc4c(S(=O)(=O)O)cc5cc(S(=O)(=O)O)c(N=Nc6ccccc6)c(O)c5c4N)cc3S(=O)(=O)O)cc2)c(O)c1 [compound 1, C.I. Direct Black 168, reference compound]
answer_label: yes (1)
--
compound: Nc1ccc(N=Nc2ccc(N=Nc3c(S(=O)(=O)[O-])cc4cc(S(=O)(=O)[O-])c(N=Nc5ccc(N=Nc6ccc(N)cc6N)cc5)c(O)c4c3N)cc2)c(N)c1.[Na+].[Na+] [compound 2, C.I. Direct Black 19, reference compound]
answer_label: no (0)
